biological target: furin, P09958; test: furin cleavage Z-score vs untreated control; higher = more cleavage, active = 3.5 or more, inactive = 1 or less, 8 variable residues between constant flanks; conditions: 15 min;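 also: purified furin at 1:10 enzyme:substrate in 50 mM HEPES pH 7.5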
Sequence (P09958 whole entry): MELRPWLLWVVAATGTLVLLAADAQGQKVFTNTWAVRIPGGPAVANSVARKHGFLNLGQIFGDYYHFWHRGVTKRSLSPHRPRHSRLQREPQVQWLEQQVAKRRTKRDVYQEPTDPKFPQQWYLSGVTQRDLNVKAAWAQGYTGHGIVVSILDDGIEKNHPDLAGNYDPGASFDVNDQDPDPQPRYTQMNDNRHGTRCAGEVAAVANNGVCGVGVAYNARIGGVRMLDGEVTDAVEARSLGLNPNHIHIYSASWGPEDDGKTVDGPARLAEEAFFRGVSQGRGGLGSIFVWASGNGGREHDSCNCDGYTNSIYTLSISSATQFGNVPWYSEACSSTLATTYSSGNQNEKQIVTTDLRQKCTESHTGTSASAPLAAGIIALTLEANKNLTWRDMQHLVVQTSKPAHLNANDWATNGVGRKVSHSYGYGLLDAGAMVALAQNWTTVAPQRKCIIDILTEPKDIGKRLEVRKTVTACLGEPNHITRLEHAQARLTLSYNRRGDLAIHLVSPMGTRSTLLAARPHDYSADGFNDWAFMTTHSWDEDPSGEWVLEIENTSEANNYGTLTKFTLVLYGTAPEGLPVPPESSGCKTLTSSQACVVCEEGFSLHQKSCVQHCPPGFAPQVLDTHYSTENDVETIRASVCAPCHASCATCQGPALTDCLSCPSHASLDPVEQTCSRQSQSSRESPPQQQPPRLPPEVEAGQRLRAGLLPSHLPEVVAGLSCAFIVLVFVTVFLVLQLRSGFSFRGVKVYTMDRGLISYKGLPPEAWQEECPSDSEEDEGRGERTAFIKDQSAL
Some of the results follow. The hit rate among all sequences tested is not known here.
Outcome codes: active, inactive

[
  {
    "Seq text": "CAGMMLAEQFAGNASASA [HC1021]",
    "Label class": "inactive"
  },
  {
    "Seq text": "CAASGVLTTSAGNASASA [HC1511]",
    "Label class": "inactive"
  },
  {
    "Seq text": "CARAQRFWSWAGNASASA [FS-3242]",
    "Label class": "inactive"
  },
  {
    "Seq text": "CAVRVLEDGVAGNASASA [HC238]",
    "Label class": "inactive"
  },
  {
    "Seq text": "CAHRCRHKRWAGNASASA [FS-133]",
    "Label class": "active"
  },
  {
    "Seq text": "CAAAQTFLATAGNASASA [HC693]",
    "Label class": "inactive"
  }
]
